Assay: qHTS for Inhibitors of the Functional Ribonucleoprotein Complex (vRNP) of Lassa (LASV) Arenavirus: Viability assay - alamar blue signal for LASV Primary Screen (AID 1347083); further: nearly all actives have a fitted effect of over 80% in size
Settings: cell viability, alamar blue fluorescence (LASV minigenome counter-screen); series mostly up to 57.5 µM
Records with an inconclusive call do not appear. Calls of active or inactive are those of the source. The call rests on the fitted dose curve; tested in HEK293 reporter line.
The categories you may choose from are active, inactive

- compound: "O=C(O)CC1CC(c2ccccc2)=NO1 (stereo not given)"
  class name: "inactive"
- compound: "CC1(C)Oc2ccc3ccc(=O)oc3c2[C@@H](O)[C@H]1O"
  class name: "inactive"
- compound: "O=C(O)C[C@H](O)C[C@H](O)C=Cc1c(C2CC2)nc2ccccc2c1-c1ccc(F)cc1"
  class name: "active"
- compound: "N[C@@H](CC(=O)O)C(=O)O"
  class name: "inactive"
- compound: "CC1(C)CCC[C@]2(C)[C@H]3Cc4cc(O)ccc4O[C@]3(C)CC[C@@H]12"
  class name: "inactive"

Asked: Please share the test call associated with `CC(=O)OCC(=O)[C@@]12OC(C)(C)O[C@@H]1C[C@H]1[C@@H]3C[C@H](F)C4=CC(=O)C=C[C@]4(C)[C@@]3(F)[C@@H](O)C[C@@]12C` .
Given back: inactive

Asked: Please indicate how the test categorized NCCCNCCCCNC(=O)C(O)NC(=O)CCCCCCN=C(N)N (stereo not given) .
Given back: inactive

Asked: Recorded test call requested for O=C(O)C1=CC(O)C(O)[C@H](O)C1 (stereo not given in full)
Given back: inactive

Asked: # lookup: test call for `CC(C)Cn1c(=O)n(C)c(=O)c2[nH]cnc21`
Given back: inactive

Asked: Assay result, entry `CNC(=O)c1cc(COc2nnc(Nc3ccc(Cl)cc3)c3ccoc23)ccn1` — outcome?
Given back: inactive

* * *

System: DIV17
Experiment: qHTS profiling for inhibitors of Plasmodium falciparum proliferation (AID 504749); further: nearly all actives have a fitted effect of over 60% in size; further: potency means the concentration at half of the fitted maximal effect
Details: P. falciparum in erythrocytes, SYBR Green DNA, 72 h; series mostly up to 28.7 µM
Records with an inconclusive call do not appear. Activity calls are given as the source filed them. Calls follow the shape of the dose curve; as a rule, active = well fitted inhibition curve with a large enough effect; inconclusive = small, poorly fitted or top-dose-only effect; inactive = flat fitted curve, though single readings scatter.
value kind: Potency

Please review the following examples before continuing.
- compound: "C[N+](C)(C)CC(=O)[O-]"
  Potency: "inactive"
- compound: "O=C(O)c1ccccc1-c1c2cc(Br)c(=O)cc-2oc2[c]([Hg])c(O)c(Br)cc12"
  Potency: "inactive"
- compound: "CO[C@H]1[C@@H](O)CC(OC2[C@@H](O)CC(OC3[C@@H](O)C[C@H](OC4CC[C@@]5(C)C(CCC6C5CC(O)[C@]5(C)[C@H](C7=CC(=O)OC7)CCC65O)C4)O[C@@H]3C)O[C@@H]2C)O[C@@H]1C (stereo not given in full)"
  Potency: "inactive"
- compound: "CCCCCCCCCC[N+](C)(C)CCCCCCCCCC"
  Potency: "3.01 µM (active)"

// moving on: another record for Potency
Asked: Fill in Potency for record CC(C)[C@@]1(NC(=O)[C@H]2CC3c4cccc5[nH]cc(c45)C[C@H]3N(C)C2)O[C@@]2(O)C3CCCN3C(=O)[C@@H](Cc3ccccc3)N2C1=O (stereo not given in full)
Given back: 0.849 µM (active)

* * *

Assay: qHTS for Inhibitors of the Functional Ribonucleoprotein Complex (vRNP) of Lymphocytic Choriomeningitis Arenaviruses (LCMV): Viability assay - alamar blue signal for LCMV Primary Screen (AID 1347085); further: nearly all actives have a fitted effect of over 80% in size
Conditions: alamar blue viability counter-screen, LCMV vRNP screen cells; series mostly up to 57.5 µM
Inconclusive results are not listed. Activity calls are given as the source filed them. The call rests on the fitted dose curve; tested in HEK293 reporter line.
Just give me one of these, please: active, inactive

// below: answered compounds
- compound: "NCc1ccccc1"
  class name: "inactive"
- compound: "OCCNC1CCCc2c1[nH]c1ccc(-c3ccccc3)cc21 (stereo not given)"
  class name: "inactive"
- compound: "CCOc1c2ccoc2nc2c(OC)c(OC)ccc12"
  class name: "inactive"
- compound: "C[C@H]1O[C@H](OC2[C@@H](O)[C@@H](O)C(O)[C@H](O)[C@H]2O)[C@@H](N)C[C@@H]1N=C(N)C(=O)O (stereo not given in full)"
  class name: "inactive"

Asked: Recorded call for `O=c1cc(-c2ccc(O)c(O)c2)oc2cc(O[C@@H]3O[C@H](CO)[C@@H](O)[C@H](O)[C@H]3O)cc(O)c12` ?
Given back: inactive

Asked: Test call for this compound, please: `Cc1cc(Nc2nc(N[C@@H](C)c3ccc(F)cc3)c(C#N)cc2F)n[nH]1`
Given back: active

Asked: What is the recorded call for this compound in the test? `C[C@H](O)C(=O)C1=Nc2c(nc(N)[nH]c2=O)NC1`
Given back: inactive

Asked: How was CC=C(C)C(=O)OC1CCN2CC=C(COC(=O)C(O)(C(C)OC)C(C)(C)O)C12 (stereo not given) classified in this test?
Given back: inactive

Asked: Recorded test call requested for CC1(C)C2CC1[C@@](C)(O)[C@H](O)C2 (stereo not given in full)
Given back: inactive

Asked: Given `Nc1nc2c(ncn2[C@@H]2O[C@H](CO)[C@@H](O)[C@@H]2O)c(=O)[nH]1` , state the outcome it received in this test.
Given back: inactive

* * *

Experiment: Cell Viability - LYMP1-003 - Assay at 40 hr (AID 964); further: nearly all actives have a fitted effect of over 60% in size
Settings: LYMP1-003 lymphoblastoid viability; series mostly up to 92.2 µM
Records with an inconclusive call do not appear. The source made the active and inactive calls. Calls follow the shape of the dose curve; as a rule, active = well fitted cell-killing curve with a large enough effect; inconclusive = small, poorly fitted or top-dose-only effect; inactive = flat fitted curve, though single readings scatter.
value kind: outcome

Guide cases for outcome, answers given:
- substance smiles: "c1ccc2c(c1)-c1cccc3cccc-2c13"
  value reported: "inactive"
- substance smiles: "CC(=O)[C@H]1CC[C@H]2[C@@H]3CCC4=CC(=O)CC[C@]4(C)[C@H]3CC[C@]12C"
  value reported: "inactive"
- substance smiles: "Oc1ccccc1Cl"
  value reported: "inactive"
- substance smiles: "Oc1c(Cl)c(Cl)c(Cl)c(Cl)c1Cl"
  value reported: "inactive"
- substance smiles: "CC(=O)/C=C/c1ccccc1"
  value reported: "inactive"
- substance smiles: "Cc1ccccc1O"
  value reported: "inactive"

Asked: Given `O=Cc1ccccc1` , respond with its outcome.
Given back: inactive

* * *

Experiment: Counterscreen qHTS for small molecule stabilizers of the endoplasmic reticulum resident proteome: GLuc-NoTag assay (AID 1508627)
Settings: Gaussia luciferase NoTag secretion counterscreen, luminescence, thapsigargin 100 nM for final 4 h; series mostly up to 76.4 µM
Records with an inconclusive call do not appear. Calls of active or inactive are those of the source. Calls come from the whole dose curve; as a rule, active = well fitted inhibition curve with a large enough effect; inconclusive = small, poorly fitted or top-dose-only effect; inactive = no such curve, though single readings can be large or run the other way.
Result category, one only: 1.0 (active), 0.0 (inactive)

- molecule: "CC(C)(O)C1OC2CCC3(C)C(O)(CCC4Cc5c([nH]c6ccccc56)C43C)C2=CC1=O (stereo unspecified)"
  class name: 0.0
- molecule: "CN1[C@@H]2CC[C@H]1CC(OC(c1ccc(F)cc1)c1ccc(F)cc1)C2 (stereo partly specified)"
  class name: 1.0
- molecule: "c1ccc2sc(C3(N4CCCC4)CCCCC3)cc2c1"
  class name: 0.0

Asked: Give the logged outcome of this assay for the following molecule: CC(C)=CCCN1CCC(NC(=O)C(O)(c2ccccc2)C2CCCC2)CC1 (stereo unspecified)
Given back: 0.0

Asked: Would you mind telling me which call this test gave OC12C3C4CC5C6C4C1C6C(C53)N2CCc1cccc(F)c1 (stereo unspecified) ?
Given back: 0.0

Asked: # fetch the recorded call for CC[C@H](Oc1ccc(Cl)cc1)C(=O)OC1C[C@H]2CC[C@@H](C1)N2C (stereo partly specified) here
Given back: 0.0

Asked: Recorded call for CN1CC[C@@]23CCCCC2C1Cc1ccc(O)cc13 (stereo partly specified) ?
Given back: 0.0

Asked: Write down the call the test reported for this molecule. Item: `CCCOc1ccc2[nH]cc(C3=CCNCC3)c2n1`
Given back: 0.0

Asked: Hi, do you know how `Fc1ccc(C(OCCN2CCN(C/C=C/c3ccccc3)CC2)c2ccc(F)cc2)cc1` came out in this test?
Given back: 1.0

Asked: Just curious, what result did `O[C@@H]1[C@H](O)[C@H]2[C@@H](O)CCN2C[C@@H]1O` get here?
Given back: 0.0

Asked: Please indicate how the test categorized `NC(N)=NCCCCCCCCCCN=C(N)N` .
Given back: 0.0

* * *

System: ATS189
Assay: qHTS profiling for inhibitors of Plasmodium falciparum proliferation (AID 504749); further: nearly all actives have a fitted effect of over 60% in size
Conditions: P. falciparum in erythrocytes, SYBR Green DNA, 72 h; series mostly up to 28.7 µM
Results filed as inconclusive are left out. The source made the active and inactive calls. Calls follow the shape of the dose curve; as a rule, active = well fitted inhibition curve with a large enough effect; inconclusive = small, poorly fitted or top-dose-only effect; inactive = flat fitted curve, though single readings scatter.
A correct response names exactly one class from T for active, F for inactive

See these solved cases before continuing.
- molecule: "CC(C)[C@@]1(NC(=O)[C@H]2CC3c4cccc5[nH]cc(c45)C[C@H]3N(C)C2)O[C@@]2(O)C3CCCN3C(=O)[C@@H](Cc3ccccc3)N2C1=O (stereo partly specified)"
  class name: "T"
- molecule: "CO[C@H]1[C@@H](O)CC(OC2[C@@H](O)CC(OC3[C@@H](O)C[C@H](OC4CC[C@@]5(C)C(CCC6C5CC(O)[C@]5(C)[C@H](C7=CC(=O)OC7)CCC65O)C4)O[C@@H]3C)O[C@@H]2C)O[C@@H]1C (stereo partly specified)"
  class name: "F"
- molecule: "C[N+](C)(C)CC(=O)[O-]"
  class name: "F"
- molecule: "CCCCCCCCCC[N+](C)(C)CCCCCCCCCC"
  class name: "T"
- molecule: "O=C(O)c1ccccc1-c1c2cc(Br)c(=O)cc-2oc2[c]([Hg])c(O)c(Br)cc12"
  class name: "F"

Next, consider the following molecule.
Asked: Given `CCN(CC)CCO[C@H]1CC[C@@]2(C)C(=CC[C@@H]3[C@H]2CC[C@]2(C)C(=O)CC[C@H]32)C1` , state the outcome it received in this test.
Given back: F

Cited source: PubChem BioAssay (NCATS)
